These measurements were taken from ChEMBL document CHEMBL4038298.

Listed here: items and their measured MIC.
Test system: Enterococcus faecalis
Experiment description: Antibacterial activity against Enterococcus faecalis OG1RF incubated for 72 hrs
Assay type: functional

Entry "CCCCCCCOC(=O)C[N+](C)(C)CCN1CC[N+](C)(CC(=O)OCCCCCCC)CC1.[Br-].[Br-]" ; MIC = > 250 µM

Entry "CCCCCCCOC(=O)C[N+](C)(C)CC[N+](C)(C)CC(=O)OCCCCCCC.[Br-].[Br-]" ; MIC = > 250 µM

Entry "CCCCCCCCCCCCCCOC(=O)C[N+](C)(C)CCN1CC[N+](C)(CC(=O)OCCCCCCCCCCCCCC)CC1.[Br-].[Br-]" ; MIC = > 250 µM

Entry "CCCCCCOC(=O)C[N+](C)(C)CCN1CC[N+](C)(CC(=O)OCCCCCC)CC1.[Br-].[Br-]" ; MIC = > 250 µM
